Below, each entry is listed alongside its reported Ratio Ki.
assay: Selectivity for sigma1 receptor over sigma2 receptor

| input-smiles | Ratio Ki |
| --- | --- |
| Oc1ccc2cccc(CCCN3CCN(C4CCCCC4)CC3)c2c1 | 2 |
| COc1ccc2c(CCCN3CCN(C4CCCCC4)CC3)cccc2c1 | 3 |
| CC1(C)CCCN(CCCCCn2c3ccccc3c3ccccc32)C1 | 0.8 |
| CC1(C)CCCN(CCCc2cccc3cc(O)ccc23)C1 | 2 |
| CC1(C)CCCN(CCCc2cccc3ccc(O)cc23)C1 | 0.6 |
| COc1ccc2cccc(CCCN3CCCC(C)(C)C3)c2c1 | 6 |
| Oc1ccc2c(CCCN3CCN(C4CCCCC4)CC3)cccc2c1 | 4 |
| COc1cccc2c(CCCN3CCCC(C)(C)C3)cccc12 | 14 |
| COc1ccc2c(CCCN3CCCC(C)(C)C3)cccc2c1 | 680 |
| c1ccc2c(c1)c1ccccc1n2CCCN1CCN(C2CCCCC2)CC1 | 0.004 |
| COc1ccc2cccc(CCCN3CCN(C4CCCCC4)CC3)c2c1 | 9 |
| CC1(C)CCCN(CCCn2c3ccccc3c3ccccc32)C1 | 2 |
| CC1(C)CCCN(CCCCn2c3ccccc3c3ccccc32)C1 | 3 |

* * *

test: Displacement of [3H]DTG from sigma2 receptor in Wistar rat liver membrane in presence of 1 uM […]; type: cell membranes
# class assignment by measured Ki: bin 0 (below 10 nM), bin 1 (10 nM to below 500 nM), bin 2 (500 nM or more)

| input-smiles | category-label |
| --- | --- |
| Oc1ccc2cccc(CCCN3CCN(C4CCCCC4)CC3)c2c1 | bin 1 |
| COc1cccc2c(CCCN3CCN(C4CCCCC4)CC3)cccc12 | bin 0 |
| COc1cccc2c(CCCN3CCCC(C)(C)C3)cccc12 | bin 2 |
| Oc1ccc2c(CCCN3CCN(C4CCCCC4)CC3)cccc2c1 | bin 1 |
| COc1ccc2cccc(CCCN3CCCC(C)(C)C3)c2c1 | bin 2 |
| CC1(C)CCCN(CCCCCn2c3ccccc3c3ccccc32)C1 | bin 1 |
| COc1ccc2cccc(CCCN3CCN(C4CCCCC4)CC3)c2c1 | bin 0 |
| CC1(C)CCCN(CCCn2c3ccccc3c3ccccc32)C1 | bin 2 |
| CC1(C)CCCN(CCCc2cccc3ccc(O)cc23)C1 | bin 1 |
| c1ccc2c(c1)c1ccccc1n2CCCN1CCN(C2CCCCC2)CC1 | bin 1 |
| CC1(C)CCCN(CCCc2cccc3cc(O)ccc23)C1 | bin 2 |
| COc1ccc2c(CCCN3CCN(C4CCCCC4)CC3)cccc2c1 | bin 0 |
| Cc1ccccc1NC(=N)Nc1ccccc1C | bin 1 |
| CC1(C)CCCN(CCCCn2c3ccccc3c3ccccc32)C1 | bin 2 |

* * *

molecular target: 3-beta-hydroxysteroid-Delta(8),Delta(7)-isomerase (Cavia porcellus); assay: Displacement of [3H]emopamil from Delta-(8)-Delta-(7) sterol isomerase in guinea pig liver membrane
Sequence (Q60490 whole entry): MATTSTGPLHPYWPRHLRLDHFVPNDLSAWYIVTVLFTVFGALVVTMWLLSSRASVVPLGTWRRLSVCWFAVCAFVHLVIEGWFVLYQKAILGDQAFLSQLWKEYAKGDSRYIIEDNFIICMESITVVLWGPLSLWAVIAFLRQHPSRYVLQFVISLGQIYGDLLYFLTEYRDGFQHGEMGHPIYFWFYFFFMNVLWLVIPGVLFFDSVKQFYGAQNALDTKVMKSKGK
Below, each entry is listed alongside its reported Ki.
test-readout: Ki (nM)

| compound | unit-string | measured-result |
| --- | --- | --- |
| COc1ccc2c(CCCN3CCN(C4CCCCC4)CC3)cccc2c1 | nM | 7.06 |
| CC1(C)CCCN(CCCc2cccc3ccc(O)cc23)C1 | nM | 30 |
| COc1ccc2cccc(CCCN3CCCC(C)(C)C3)c2c1 | nM | 4.12 |
| CC(C(O)c1ccc(O)cc1)N1CCC(Cc2ccccc2)CC1 (racemic) [IFENPRODIL] | nM | 19.8 |
| c1ccc2c(c1)c1ccccc1n2CCCN1CCN(C2CCCCC2)CC1 | nM | 79.9 |
| Oc1ccc2cccc(CCCN3CCN(C4CCCCC4)CC3)c2c1 | nM | 55 |
| COc1cccc2c(CCCN3CCCC(C)(C)C3)cccc12 | nM | 12.8 |
| CC1(C)CCCN(CCCCCn2c3ccccc3c3ccccc32)C1 | nM | 24 |
| CC1(C)CCCN(CCCc2cccc3cc(O)ccc23)C1 | nM | 352 |
| CC1(C)CCCN(CCCCn2c3ccccc3c3ccccc32)C1 | nM | 270 |
| Oc1ccc2c(CCCN3CCN(C4CCCCC4)CC3)cccc2c1 | nM | 21.3 |
| COc1ccc2cccc(CCCN3CCN(C4CCCCC4)CC3)c2c1 | nM | 42.4 |
| CC1(C)CCCN(CCCn2c3ccccc3c3ccccc32)C1 | nM | 345 |
| COc1cccc2c(CCCN3CCN(C4CCCCC4)CC3)cccc12 | nM | 4.51 |
